# protocol text: CARIV-A-001 Part B: cross-over IV infusion over 2 hours vs oral tablet 100 mg/kg in healthy subjects
# Assay type: in vivo, human
# test conditions: both sexes, human, plasma, iv, 12 mg/kg, IV, 12 mg/kg, N 2; read-out: Cmax, Median
observable: Cmax (ng/mL)
# unit: ng/mL | format: bare number

Query string: Output Cmax of NC(=O)N[C@@H](CCC(=O)O)C(=O)O
Result string: 21400

###

# protocol text: CARIV-A-001 Part B: cross-over IV infusion over 2 hours vs oral tablet 100 mg/kg in healthy subjects
# Type: in vivo, human
# test conditions: IV, 8 mg/kg, N 10
observable: Cmax, Min (ng/mL)
# unit: ng/mL | format: bare number

Query string: Output Cmax, Min of NC(=O)N[C@@H](CCC(=O)O)C(=O)O
Result string: 5400
